# assay_remarks: Cytotoxicity against rat L6 cells after 72 hrs by Alamar blue resazurin assay
# Type: cell-based
# run_parameters: read-out: TD50
Provide the recorded CC50 at 72 h for the entries that follow.
Provide the reading as a plain figure in µM.

Problem: CC50 at 72 h for Cc1cc(F)cc(C)c1OCC(=O)N[C@@H](Cc1ccccc1)[C@H](O)C(=O)N1CSC(C)(C)[C@H]1C(=O)N[C@H]1c2ccccc2C[C@H]1O ?
Solution: 29

Problem: CC50 at 72 h for CC1(C)SCN(C(=O)[C@@H](O)[C@H](Cc2ccccc2)NC(=O)COc2ccc([N+](=O)[O-])cc2)[C@@H]1C(=O)N[C@H]1c2ccccc2C[C@H]1O ?
Solution: 63

Problem: CC50 at 72 h for CC(C)c1cccc(C(C)C)c1OCC(=O)N[C@@H](Cc1ccccc1)[C@H](O)C(=O)N1CSC(C)(C)[C@H]1C(=O)N[C@H]1c2ccccc2C[C@H]1O ?
Solution: 6.3

Problem: CC50 at 72 h for CC1(C)SCN(C(=O)[C@@H](O)[C@H](Cc2ccccc2)NC(=O)COc2cccc([N+](=O)[O-])c2)[C@@H]1C(=O)N[C@H]1c2ccccc2C[C@H]1O ?
Solution: 58

Problem: CC50 at 72 h for Cc1cc(N(C)C)cc(C)c1OCC(=O)N[C@@H](Cc1ccccc1)[C@H](O)C(=O)N1CSC(C)(C)[C@H]1C(=O)N[C@H]1c2ccccc2C[C@H]1O ?
Solution: 45

Problem: CC50 at 72 h for CC1(C)SCN(C(=O)[C@@H](O)[C@H](Cc2ccccc2)NC(=O)COc2c(F)cccc2F)[C@@H]1C(=O)N[C@H]1c2ccccc2C[C@H]1O ?
Solution: 55

Problem: CC50 at 72 h for CCCCCNc1cc(C)c(OCC(=O)N[C@@H](Cc2ccccc2)[C@H](O)C(=O)N2CSC(C)(C)[C@H]2C(=O)N[C@H]2c3ccccc3C[C@H]2O)c(C)c1 ?
Solution: 12

Problem: CC50 at 72 h for CCCCNc1cc(C)c(OCC(=O)N[C@@H](Cc2ccccc2)[C@H](O)C(=O)N2CSC(C)(C)[C@H]2C(=O)N[C@H]2c3ccccc3C[C@H]2O)c(C)c1 ?
Solution: 22

Problem: CC50 at 72 h for CCNc1cc(C)c(OCC(=O)N[C@@H](Cc2ccccc2)[C@H](O)C(=O)N2CSC(C)(C)[C@H]2C(=O)N[C@H]2c3ccccc3C[C@H]2O)c(C)c1 ?
Solution: 64

* * *

The reader will find pKi measurements below, all made with UniProt P46925.
// scale note: pKi = -log10(conc_M); give the bare number

Problem: pKi for CC1(C)SCN(C(=O)[C@@H](O)[C@H](Cc2ccccc2)NC(=O)COc2ccc(CO)cc2)[C@@H]1C(=O)N[C@H]1c2ccccc2C[C@H]1O ?
Solution: 8.00

Problem: pKi for Cc1ccccc1OCC(=O)N[C@@H](Cc1ccccc1)[C@H](O)C(=O)N1CSC(C)(C)[C@H]1C(=O)N[C@H]1c2ccccc2C[C@H]1O ?
Solution: 6.84

Problem: pKi for Cc1cc(N(C)C)cc(C)c1OCC(=O)N[C@@H](Cc1ccccc1)[C@H](O)C(=O)N1CSC(C)(C)[C@H]1C(=O)N[C@H]1c2ccccc2C[C@H]1O ?
Solution: 7.68

Problem: pKi for CCCCCNc1cc(C)c(OCC(=O)N[C@@H](Cc2ccccc2)[C@H](O)C(=O)N2CSC(C)(C)[C@H]2C(=O)N[C@H]2c3ccccc3C[C@H]2O)c(C)c1 ?
Solution: 7.59

Problem: pKi for CNc1cc(C)c(OCC(=O)N[C@@H](Cc2ccccc2)[C@H](O)C(=O)N2CSC(C)(C)[C@H]2C(=O)N[C@H]2c3ccccc3C[C@H]2O)c(C)c1 ?
Solution: 7.60

Problem: pKi for CC1(C)SCN(C(=O)[C@@H](O)[C@H](Cc2ccccc2)NC(=O)COc2ccc([N+](=O)[O-])cc2)[C@@H]1C(=O)N[C@H]1c2ccccc2C[C@H]1O ?
Solution: 7.60

Problem: pKi for CC1(C)SCN(C(=O)[C@@H](O)[C@H](Cc2ccccc2)NC(=O)COc2ccc(O)cc2)[C@@H]1C(=O)N[C@H]1c2ccccc2C[C@H]1O ?
Solution: 8.00

Problem: pKi for CC1(C)SCN(C(=O)[C@@H](O)[C@H](Cc2ccccc2)NC(=O)COc2ccccc2CO)[C@@H]1C(=O)N[C@H]1c2ccccc2C[C@H]1O ?
Solution: 6.88

Problem: pKi for Cc1cc(NCc2ccncc2)cc(C)c1OCC(=O)N[C@@H](Cc1ccccc1)[C@H](O)C(=O)N1CSC(C)(C)[C@H]1C(=O)N[C@H]1c2ccccc2C[C@H]1O ?
Solution: 8.22

Problem: pKi for CCNc1cc(C)c(OCC(=O)N[C@@H](Cc2ccccc2)[C@H](O)C(=O)N2CSC(C)(C)[C@H]2C(=O)N[C@H]2c3ccccc3C[C@H]2O)c(C)c1 ?
Solution: 8.15

Problem: pKi for CC1(C)SCN(C(=O)[C@@H](O)[C@H](Cc2ccccc2)NC(=O)COc2ccc(N)cc2)[C@@H]1C(=O)N[C@H]1c2ccccc2C[C@H]1O ?
Solution: 7.55

Problem: pKi for CC(C)c1cccc(C(C)C)c1OCC(=O)N[C@@H](Cc1ccccc1)[C@H](O)C(=O)N1CSC(C)(C)[C@H]1C(=O)N[C@H]1c2ccccc2C[C@H]1O ?
Solution: 7.64

* * *

The reader will find pKi measurements below, all made with UniProt P46925.
// scale note: pKi = -log10(conc_M); give the bare number

Problem: UniProt P46925 / pKi / Cc1cc(NCc2cccnc2)cc(C)c1OCC(=O)N[C@@H](Cc1ccccc1)[C@H](O)C(=O)N1CSC(C)(C)[C@H]1C(=O)N[C@H]1c2ccccc2C[C@H]1O : value?
Solution: 7.68

Problem: UniProt P46925 / pKi / CC1(C)SCN(C(=O)[C@@H](O)[C@H](Cc2ccccc2)NC(=O)COc2ccccc2[N+](=O)[O-])[C@@H]1C(=O)N[C@H]1c2ccccc2C[C@H]1O : value?
Solution: 7.26

Problem: UniProt P46925 / pKi / CCCCNc1cc(C)c(OCC(=O)N[C@@H](Cc2ccccc2)[C@H](O)C(=O)N2CSC(C)(C)[C@H]2C(=O)N[C@H]2c3ccccc3C[C@H]2O)c(C)c1 : value?
Solution: 7.52

* * *

# measurement_target: Plasmepsin II (Plasmodium falciparum, UniProt P46925)
# Sequence (P46925 whole entry): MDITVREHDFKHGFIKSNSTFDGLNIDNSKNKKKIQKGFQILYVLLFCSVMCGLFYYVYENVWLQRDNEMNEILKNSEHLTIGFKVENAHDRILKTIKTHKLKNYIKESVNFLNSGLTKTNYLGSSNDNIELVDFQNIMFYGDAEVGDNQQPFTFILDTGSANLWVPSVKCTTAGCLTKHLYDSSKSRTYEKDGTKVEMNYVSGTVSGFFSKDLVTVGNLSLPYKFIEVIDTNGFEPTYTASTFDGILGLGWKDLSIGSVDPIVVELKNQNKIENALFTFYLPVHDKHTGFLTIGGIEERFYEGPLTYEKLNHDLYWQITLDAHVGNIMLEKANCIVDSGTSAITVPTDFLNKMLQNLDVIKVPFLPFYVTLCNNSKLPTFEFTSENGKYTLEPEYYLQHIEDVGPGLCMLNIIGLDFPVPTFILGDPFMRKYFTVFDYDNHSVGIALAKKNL
Provide the recorded pKi for the entries that follow.
// scale note: pKi = -log10(conc_M); give the bare number

Problem: Plasmepsin II (Plasmodium falciparum, UniProt P46925) / pKi / Cc1cccc(OCC(=O)N[C@@H](Cc2ccccc2)[C@H](O)C(=O)N2CSC(C)(C)[C@H]2C(=O)N[C@H]2c3ccccc3C[C@H]2O)c1 : value?
Solution: 7.38

Problem: Plasmepsin II (Plasmodium falciparum, UniProt P46925) / pKi / CC1(C)SCN(C(=O)[C@@H](O)[C@H](Cc2ccccc2)NC(=O)COc2cccc([N+](=O)[O-])c2)[C@@H]1C(=O)N[C@H]1c2ccccc2C[C@H]1O : value?
Solution: 7.42

Problem: Plasmepsin II (Plasmodium falciparum, UniProt P46925) / pKi / COc1ccc(OCC(=O)N[C@@H](Cc2ccccc2)[C@H](O)C(=O)N2CSC(C)(C)[C@H]2C(=O)N[C@H]2c3ccccc3C[C@H]2O)cc1 : value?
Solution: 6.32
